Where these numbers come from: PubChem BioAssay (NCATS)

# Experiment Notes: S16 Schwann cell PMP22 intronic element firefly luciferase assay (AID 624032); further: nearly all actives have a fitted effect of over 30% in size
# Assay Context: S16 rat Schwann cells, PMP22 element FLuc, 24 h; series mostly up to 57.5 µM
Inconclusive results are not listed. The source made the active and inactive calls. The call rests on the fitted dose curve; in most records, active means well fitted inhibition curve with a large enough effect; inconclusive means small, poorly fitted or top-dose-only effect; inactive means no such curve, though single readings can be large or run the other way.
Outcomes: active, inactive

Molecule: CC(C)NCC(O)c1ccc(N)c(C#N)c1 (stereo not drawn)
Class Label: inactive

Molecule: C[N+]1(CCC(C(N)=O)(c2ccccc2)c2ccccc2)CCCCC1
Class Label: inactive

Molecule: CC(C)(C)OC(=O)c1ncn2c1[C@@H]1CCCN1C(=O)c1c(Br)cccc1-2
Class Label: inactive

Molecule: CN(C)C(=S)SSC(=S)N(C)C
Class Label: active

Molecule: CCCCCCCCCCCC[N+](C)(C)CCOc1ccccc1
Class Label: active

Molecule: NC(=O)CN1CCCC1=O
Class Label: inactive

Molecule: CCS(=O)(=O)C(C)(C)S(=O)(=O)CC
Class Label: inactive

Molecule: CC[C@]1(O)CC[C@H]2[C@@H]3CCC4=CCCC[C@@H]4[C@H]3CC[C@@]21C
Class Label: active

Molecule: COCC(=O)N(c1c(C)cccc1C)C(C)C(=O)OC (stereo not drawn)
Class Label: inactive

Molecule: Cc1c(Cl)c(=O)oc2cc(OP(=O)(OCCCl)OCCCl)ccc12
Class Label: active

Molecule: C[N+](C)(C)CCOC(=O)C(O)(c1ccccc1)c1ccccc1
Class Label: inactive

Molecule: N#Cc1nn(-c2c(Cl)cc(C(F)(F)F)cc2Cl)c(N)c1S(=O)C(F)(F)F (stereo not drawn)
Class Label: active

Molecule: NC(=O)NNc1ccccc1
Class Label: inactive
